Tested on: CCRIS mutagenicity, Ames/micronucleus/aberration tests
procedure-text: CCRIS mutagenicity studies
settings: Test System: AMES SALMONELLA TYPHIMURIUM; Strain/Indicator: TA100; Metabolic Activation: RAT, LIVER, S-9, AROCLOR 1254 (10%); Method: PREINCUBATION
Calls of active or inactive are those of the source. The rule behind the calls is not given here.
Outcomes: TRUE (active), FALSE (inactive)

compound: CCCCCCCCCCCC(=O)N(CCO)CCO
class-assignment: FALSE

compound: COc1ccc(N)cc1N
class-assignment: TRUE

compound: C(CCOCC1CO1)COCC1CO1 (centres undefined)
class-assignment: TRUE

compound: C=CC(=C)C
class-assignment: FALSE

compound: c1ccsc1
class-assignment: FALSE

compound: CC(C)=CCC/C(C)=C/C=O
class-assignment: FALSE

compound: C=CCN(CC=C)CC=C
class-assignment: FALSE

compound: Cc1ccc(S(=O)(=O)NC(=O)NN2CCCCCC2)cc1
class-assignment: FALSE

compound: C=CC(=O)OCC1CO1 (centres undefined)
class-assignment: TRUE

compound: [O]=[Zr]
class-assignment: FALSE

compound: [N-]=[N+]=[N-]
class-assignment: TRUE

compound: CCCCC(CC)COCCC#N (centres undefined)
class-assignment: FALSE

compound: CCNCC
class-assignment: FALSE

compound: Oc1ccc(Cl)cc1Cc1ccccc1
class-assignment: FALSE

compound: CC=C(C)C#N
class-assignment: FALSE

compound: O=[N+]([O-])c1ccc(Nc2ccccc2O)c([N+](=O)[O-])c1
class-assignment: TRUE

compound: CC(=O)Oc1ccccc1C(=O)O
class-assignment: FALSE

compound: Cc1ccc(O)c(N)c1
class-assignment: TRUE

compound: CCCCC(CC)CN (centres undefined)
class-assignment: FALSE

compound: CNC[C@H](O)c1ccc(O)c(O)c1
class-assignment: FALSE

compound: O=C(O)c1ccccc1[N+](=O)[O-]
class-assignment: FALSE

compound: ClC(Cl)(Cl)CC1CO1 (centres undefined)
class-assignment: FALSE

compound: Cl/C=C/C[N+]12CN3CN(CN(C3)C1)C2
class-assignment: FALSE

compound: CC(=O)Nc1ccc(/C=N/n2nnc3c([nH]c4ccccc43)c2=O)cc1
class-assignment: TRUE

compound: NC=O
class-assignment: FALSE

compound: Oc1ccc2cc(SSc3ccc4cc(O)ccc4c3)ccc2c1
class-assignment: FALSE

compound: Cc1ccc(CO)cc1
class-assignment: FALSE

compound: CCC(C)(C)c1ccc(O)cc1
class-assignment: FALSE

compound: Cc1ccc(OP(=O)(Oc2ccc(C)cc2C)Oc2ccc(C)cc2C)c(C)c1
class-assignment: FALSE

compound: CCSCCC(N)C(=O)O (centres undefined)
class-assignment: FALSE

compound: c1ccc(P(c2ccccc2)c2ccccc2)cc1
class-assignment: FALSE

compound: O=c1c2[nH]c3ccccc3c2nnn1/N=C/c1ccc([N+](=O)[O-])cc1
class-assignment: TRUE

compound: CC(C)CON=O
class-assignment: TRUE

compound: C=C(C)C(=O)OC(C)C
class-assignment: FALSE

* * *

Test system: CCRIS mutagenicity, Ames/micronucleus/aberration tests
procedure-text: CCRIS mutagenicity studies
settings: Test System: AMES SALMONELLA TYPHIMURIUM; Strain/Indicator: TA1535; Metabolic Activation: RAT, LIVER, S-9, AROCLOR 1254; Method: STANDARD PLATE
Active and inactive are the calls of the source. How the calls were made is not given here.
Possible outcomes: YES for active, NO for inactive

compound: C=C1CC[C@H]2C[C@@H]1C2(C)C
class-assignment: NO
//
compound: CC(C)N(C(=O)SCC(Cl)=C(Cl)Cl)C(C)C
class-assignment: YES
//
compound: C=C(C)C(=O)OCCCCCCOC(=O)C(=C)C
class-assignment: NO
//
compound: CC(=O)O[C@]1(C(C)=O)CC[C@H]2[C@@H]3C4OC4(Cl)C4=CC(=O)[C@@H]5C[C@@H]5[C@]4(C)[C@H]3CC[C@@]21C (stereo not given in full)
class-assignment: NO
//
compound: C=CC(=O)OCCCCC
class-assignment: NO
//
compound: CC(C)n1c(/C=C/[C@H](O)C[C@H](O)CC(=O)O)c(-c2ccc(F)cc2)c2ccccc21
class-assignment: NO
//
compound: CC(=O)Oc1ccccc1C(=O)O
class-assignment: NO
//
compound: C=CC(=O)OCC
class-assignment: NO
//
compound: Cc1ccc(NS(=O)(=O)c2cccc3cccnc23)cc1
class-assignment: NO
//
compound: Nc1ccc(S(=O)(=O)Nc2nccs2)cc1
class-assignment: NO
//
compound: Cc1cc(N)c([N+](=O)[O-])cc1N
class-assignment: NO
//
compound: O=[N+]([O-])c1cccc(NS(=O)(=O)c2cccc3cccnc23)c1
class-assignment: NO
//
compound: [N-]=[N+]=[N-]
class-assignment: YES
//
compound: O=C(O)CN(CC(=O)O)CC(=O)O
class-assignment: NO
//
compound: CC[C@H](C)[C@@H]([C@@H](CC(=O)N1CCC[C@H]1[C@H](OC)[C@@H](C)C(=O)N[C@@H](Cc1ccccc1)c1nccs1)OC)N(C)C(=O)[C@@H](NC(=O)[C@H](C(C)C)N(C)C)C(C)C
class-assignment: NO
//
compound: O=c1[nH]cnc2[nH]ncc12
class-assignment: NO
//
compound: Nc1ccc(S(=O)(=O)Nc2cnc3c(Cl)cccc3n2)cc1
class-assignment: NO
//
compound: O=C(CCNNC(=O)c1ccncc1)NCc1ccccc1
class-assignment: YES
//
compound: O=c1c(Cl)c(Cl)cnn1S(=O)(=O)c1ccc(Cl)cc1Cl
class-assignment: NO
//
compound: Nc1ccc2c(c1)C(=O)c1ccc(N)cc1C2=O
class-assignment: NO

* * *

System: CCRIS mutagenicity, Ames/micronucleus/aberration tests
procedure-text: CCRIS mutagenicity studies
settings: Test System: AMES SALMONELLA TYPHIMURIUM; Strain/Indicator: TA97; Metabolic Activation: NONE; Method: STANDARD PLATE
Active and inactive are the calls of the source. The rule behind the calls is not given here.
Classes used: active, inactive

compound: Nc1ccc(-c2ccccc2)cc1
class-assignment: inactive
//
compound: CNCCCC(=O)O
class-assignment: inactive
//
compound: O=C(O)/C(Cl)=C(\C(=O)O)C(Cl)Cl
class-assignment: inactive
//
compound: CC/C(=C(/CC)c1ccc(O)cc1)c1ccc(O)cc1
class-assignment: inactive
//
compound: NC(=O)NCC(=O)O
class-assignment: inactive
//
compound: CCOC(=O)CNC(=O)CCCCSc1ncnc2nc[nH]c12
class-assignment: inactive
//
compound: CC1C(C)(C)C2=C(C(=O)CCC2)C1(C)C (stereo not drawn)
class-assignment: inactive
//
compound: CC(=O)Nc1ccc(O)cc1
class-assignment: inactive
//
compound: CS(C)=O
class-assignment: inactive
//
compound: CC(=O)n1ccnc1
class-assignment: inactive
//
compound: CCNc1nc(Cl)nc(NCC)n1
class-assignment: inactive
//
compound: Cl
class-assignment: inactive
//
compound: N=C1C=CC(=C(c2ccc(N)cc2)c2ccc(N)cc2)C=C1
class-assignment: inactive
//
compound: COc1cccc2c1C(=O)c1c(O)c3c(c(O)c1C2=O)C[C@@](O)(C(C)=NNC(=O)c1ccccc1)C[C@@H]3O[C@H]1C[C@H](N)[C@H](O)[C@H](C)O1
class-assignment: inactive
//
compound: COc1cccc2c1C(=O)c1c(O)c3c(c(O)c1C2=O)C[C@@](O)(C(=O)CO)C[C@@H]3O[C@H]1C[C@H](N)[C@H](O)[C@H](C)O1
class-assignment: inactive
//
compound: Cc1nc2c(c3[nH]c4ccccc4c13)C(=O)C(N1CC1)=CC2=O
class-assignment: active
//
compound: O=C(O)COc1ccc(Cl)cc1
class-assignment: inactive
//
compound: CCCCOC(=O)CCCCCCCCC(=O)OCCCC
class-assignment: inactive
//
compound: O=C1C=Cc2ccc3c4c(ccc1c24)C=CC3=O
class-assignment: active
//
compound: C=COC(C)=O
class-assignment: inactive
//
compound: [N-]=[N+]=[N-]
class-assignment: inactive
//
compound: Cc1ccccc1N
class-assignment: inactive
//
compound: COc1cccc2c1C(=O)c1c(O)c3c(c(O)c1C2=O)C[C@@](O)(C(=O)CO)C[C@@H]3O[C@H]1C[C@H](N)[C@@H](O)[C@H](C)O1
class-assignment: inactive
//
compound: O=C(O)C1Cc2c([nH]c3ccccc23)C(CO)N1 (stereo not drawn)
class-assignment: inactive
//
compound: Clc1ccncc1
class-assignment: inactive
//
compound: O=C([O-])c1cccnc1Nc1cccc(C(F)(F)F)c1.O=C([O-])c1cccnc1Nc1cccc(C(F)(F)F)c1.[Cu+2]
class-assignment: inactive
//
compound: Oc1cccc(Cl)c1
class-assignment: active
//
compound: Oc1c(Cl)ccc(Cl)c1Cl
class-assignment: inactive
//
compound: CCN(CC)CCCC(C)Nc1ccnc2cc(Cl)ccc12 (stereo not drawn)
class-assignment: active
//
compound: COP(=O)(OC)SC
class-assignment: inactive
//
compound: O=C(CCl)NCO
class-assignment: inactive
//
compound: [O-][N+](=Nc1ccc(Cl)c(Cl)c1)c1ccc(Cl)c(Cl)c1
class-assignment: inactive
//
compound: c1ccc(C2CO2)cc1 (stereo not drawn)
class-assignment: active
//
compound: Oc1ccc(Cl)cc1
class-assignment: inactive
//
compound: CC(C)CCC[C@@H](C)[C@H]1CC[C@H]2[C@@H]3C(=O)C=C4C[C@@H](O)CC[C@]4(C)[C@H]3CC[C@]12C
class-assignment: inactive
//
compound: ClC1=C(Cl)[C@]2(Cl)[C@@H]3[C@H]4C[C@H]([C@@H]5O[C@H]45)[C@@H]3[C@@]1(Cl)C2(Cl)Cl
class-assignment: inactive
//
compound: [Cl][Cd][Cl]
class-assignment: inactive
//
compound: Clc1ccc(N=Nc2ccc(Cl)c(Cl)c2)cc1Cl
class-assignment: inactive
//
compound: C/C=C/c1cc(OC)c(OC)cc1OC
class-assignment: inactive
//
compound: Cc1ccc2c(ccc3ccccc32)c1
class-assignment: inactive
//
compound: Cc1ccc2c(c1)C(=O)c1ccccc1C2=O
class-assignment: inactive
//
compound: COC/C(=C/c1ccccc1)OC
class-assignment: inactive
//
compound: O=C1c2ccccc2C(=O)N1SC1CCCCC1
class-assignment: inactive

The measured values listed here are drawn from PubChem BioAssay AID1259407.
